Each entry below carries its recorded TGI.
System: SK-MEL-28 melanoma
method: NCI tumour cell line growth inhibition, 48 h

Consider the following illustrative entries.
compound	TGI
CN(C)c1ccc(/C=C/C(=O)[O-])cc1.CN(C)c1ccc(/C=C/C(=O)[O-])cc1.[Cu+2]	> 100 µM
COc1cc2nc(Nc3cccc(Br)c3)nc(Nc3cccc(Br)c3)c2cc1OC	33.5 µM
CCN(CC)CCC(=O)c1ccc(Sc2ccc(F)cc2)cc1	34.3 µM
CCN(CC)C(=O)Cn1c(-c2ccccc2)cc2ccccc21	> 100 µM
COc1ccc(N=Cc2c(O)ccc3c2oc2cc(Cl)c(O)c(Cl)c23)cc1	40.4 µM

Tell me the measured TGI of "CN(C)CCNc1nc2ccccc2c2c1CCCC2" , please.
39.6 µM

// query: COc1cc(C2S/C(=C/c3ccccc3)C(=O)N2c2ccc(NC(C)=O)cc2)cc(OC)c1OC (stereo unspecified)
> 100 µM

// query: "Cc1ccc(Cl)cc1Nc1nc(C(F)(F)F)ccc1C(=O)N/N=C/c1cccnc1"
15.8 µM

====

System: SW-620 colon
method: NCI tumour cell line growth inhibition, 48 h
readout name: TGI

Consider the following illustrative entries.
compound	recorded value
Cc1ccc(NC(=O)c2ccc(CN3CCN(C)CC3)cc2)cc1Nc1nccc(-c2cccnc2)n1	54.7 µM
CCCC(=O)Nc1cc(/C=C/C(=O)N2CC(CCl)c3c2cc(OCc2ccccc2)c2[nH]cc(C)c32)n(C)c1 (stereo unspecified)	> 25 µM
O=C1CC(c2c(-c3ccccc3)[nH]c3ccccc23)C(=O)N1 (stereo unspecified)	> 100 µM
O=[N+]([O-])c1ccc2nc(Cl)n[n+]([O-])c2c1	35.5 µM
Nc1ccccc1Nc1ccccc1C(=O)[O-].Nc1ccccc1Nc1ccccc1C(=O)[O-].[Zn+2]	> 100 µM
COC(=O)C1=Cc2cc(OC)c(OC)c(OC)c2[C@H](c2cc(OC)c(OC)c(OC)c2)C1C(=O)OC (stereo partly specified)	> 100 µM

Tell me the measured TGI of "Cc1ccc(Cl)cc1Nc1nc(C(F)(F)F)ccc1C(=O)N/N=C/c1cccnc1" , please.
14.9 µM

// query: "COc1ccc(/C=N/NC(=O)c2sc(=S)n(-c3ccccc3)c2N)cc1"
> 100 µM

// query: "Cc1c(O)c2ccccc2oc1=O"
> 100 µM

// query: COc1cc(/C=C2/SC(c3ccccc3)N(Cc3ccccc3)C2=O)cc(OC)c1OC (stereo unspecified)
> 100 µM

// query: O=C1c2[nH]cc(CNC3CN4CCC3CC4)c2C(=O)c2c1c(O)c1ccccc1c2O (stereo unspecified)
0.399 µM

// query: "NC(=O)C(=O)c1ncn(Cc2ccccc2)c1N"
> 100 µM

// query: "O=S(=O)([O-])c1ccc(N=Cc2ccccc2[O-])cc1.O=S(=O)([O-])c1ccc(N=Cc2ccccc2[O-])cc1.[O]=[U+2]=[O]"
> 100 µM

====

Test system: MDA-MB-231 breast
method: NCI tumour cell line growth inhibition, 48 h
readout name: TGI (µM)
Write the number in µM without appending the unit.

Consider the following illustrative entries.
compound	TGI, µM
Cn1cc(C2=C(c3ccccc3[N+](=O)[O-])C(=O)NC2=O)c2ccccc21	19.6
CC1(C)N=C(N)N=C(N)N1c1ccc(CCCCc2ccccc2)c(Cl)c1	5.85
CCN(CC)CCC(=O)c1ccc(Sc2ccc(F)cc2)cc1	34

Could you now consider this next compound?
Tell me the measured TGI of CCCCCCCCCCCCCCCCCCNc1ccn(C2OC(COP(=O)(O)OCC3OC(n4cc(C)c(=O)[nH]c4=O)CC3F)C(O)C2O)c(=O)n1 (stereo not given) , please.
48.7

FYI, the data here is from PubChem BioAssay (NCI).
